The origin of these recorded values is ChEMBL document CHEMBL2311458.

# Test system: Staphylococcus aureus
# measurement.description: Antibacterial activity against Staphylococcus aureus assessed as growth inhibition measured at 50 ug/ml after 24 hrs by broth microdilution method
# Format: functional
Activity calls are given as the source filed them. The rule behind the calls is not given here.
readout.kind: inhibition

Known inhibition results, listed for orientation:
Query block: What does the record list as inhibition for COC1=C(c2ccccc2)C(=O)OC1C(O)c1ccc(N2CCOCC2)c(F)c1 (configuration not stated) ?
Result block: inactive

Query block: What does the record list as inhibition for COC1=C(c2ccc(C)cc2)C(=O)OC1C(O)c1ccc(N2CCOCC2)c(F)c1 (configuration not stated) ?
Result block: inactive

Query block: What does the record list as inhibition for COC1=C(c2ccc(Cl)cc2)C(=O)OC1C(O)c1ccc(N2CCOCC2)c(F)c1 (configuration not stated) ?
Result block: inactive

Query block: What does the record list as inhibition for COC1=C(c2ccccc2)C(=O)O/C1=C\c1ccccc1 ?
Result block: inactive

Query block: What does the record list as inhibition for COC1=C(c2ccc(F)cc2)C(=O)O/C1=C\c1ccc(N2CCOCC2)c(F)c1 ?
Result block: inactive

Query block: What does the record list as inhibition for COC1=C(c2ccc(Br)cc2)C(=O)OC1C(O)c1ccc(N2CCOCC2)c(F)c1 (configuration not stated) ?
Result block: inactive

***
Query block: What does the record list as inhibition for O=C1O/C(=C\c2ccc(N3CCOCC3)c(F)c2)C(O)=C1c1ccc(F)cc1 ?
Result block: inactive

Query block: What does the record list as inhibition for COC1=C(c2ccccc2)C(=O)O/C1=C\c1ccc(N2CCOCC2)c(F)c1 ?
Result block: inactive

Query block: What does the record list as inhibition for COC1=C(c2cccc(F)c2)C(=O)OC1C(O)c1ccc(N2CCOCC2)c(F)c1 (configuration not stated) ?
Result block: inactive

Query block: What does the record list as inhibition for COC1=C(c2ccc(F)cc2)C(=O)OC1C(O)c1ccc(N2CCOCC2)c(F)c1 (configuration not stated) ?
Result block: inactive

Query block: What does the record list as inhibition for COC1=C(c2ccc(Cl)cc2)C(=O)O/C1=C\c1ccc(N2CCOCC2)c(F)c1 ?
Result block: inactive

Query block: What does the record list as inhibition for COC1=C(c2ccccc2)C(=O)OC1C(O)c1ccccc1 (configuration not stated) ?
Result block: inactive

* * *

# Test system: Escherichia coli
# measurement.description: Antibacterial activity against Escherichia coli assessed as growth inhibition measured at 50 ug/ml after 24 hrs by broth microdilution method
# Assay type: functional
readout.kind: inhibition at 50 µg/mL (%)
Output spec: scalar in %, unitless text.

Known inhibition at 50 µg/mL results, listed for orientation:
Query block: What does the record list as inhibition at 50 µg/mL for COC1=C(c2ccc(F)cc2)C(=O)O/C1=C\c1ccc(N2CCOCC2)c(F)c1 ?
Result block: 37.6

Query block: What does the record list as inhibition at 50 µg/mL for O=C1O/C(=C\c2ccc(N3CCOCC3)c(F)c2)C(O)=C1c1ccc(F)cc1 ?
Result block: 56.8

Query block: What does the record list as inhibition at 50 µg/mL for COC1=C(c2ccccc2)C(=O)O/C1=C\c1ccc(N2CCOCC2)c(F)c1 ?
Result block: 45.4

Query block: What does the record list as inhibition at 50 µg/mL for COC1=C(c2ccc(Cl)cc2)C(=O)O/C1=C\c1ccc(N2CCOCC2)c(F)c1 ?
Result block: 70.7

Query block: What does the record list as inhibition at 50 µg/mL for COC1=C(c2ccccc2)C(=O)OC1C(O)c1ccc(N2CCOCC2)c(F)c1 (configuration not stated) ?
Result block: 52.4

Query block: What does the record list as inhibition at 50 µg/mL for COC1=C(c2ccc(C)cc2)C(=O)OC1C(O)c1ccc(N2CCOCC2)c(F)c1 (configuration not stated) ?
Result block: 58.3

Query block: What does the record list as inhibition at 50 µg/mL for COC1=C(c2ccc(F)cc2)C(=O)OC1C(O)c1ccc(N2CCOCC2)c(F)c1 (configuration not stated) ?
Result block: 42

Query block: What does the record list as inhibition at 50 µg/mL for COC1=C(c2ccc(Cl)cc2)C(=O)OC1C(O)c1ccc(N2CCOCC2)c(F)c1 (configuration not stated) ?
Result block: 61.8

Query block: What does the record list as inhibition at 50 µg/mL for COC1=C(c2ccccc2)C(=O)O/C1=C\c1ccccc1 ?
Result block: 60.2

Query block: What does the record list as inhibition at 50 µg/mL for COC1=C(c2ccccc2)C(=O)OC1C(O)c1ccccc1 (configuration not stated) ?
Result block: 61.7

***
Query block: What does the record list as inhibition at 50 µg/mL for COC1=C(c2ccc(Br)cc2)C(=O)OC1C(O)c1ccc(N2CCOCC2)c(F)c1 (configuration not stated) ?
Result block: 45.5

Query block: What does the record list as inhibition at 50 µg/mL for COC1=C(c2cccc(F)c2)C(=O)OC1C(O)c1ccc(N2CCOCC2)c(F)c1 (configuration not stated) ?
Result block: 72

* * *

# System: Acinetobacter baumannii
# measurement.description: Antibacterial activity against Acinetobacter baumannii assessed as growth inhibition measured at 50 ug/ml after 24 hrs by broth microdilution method
# Type: functional
Listed compounds paired with reported inhibition at 50 µg/mL
Output spec: scalar in %, unitless text.

Known inhibition at 50 µg/mL results, listed for orientation:
Query block: What value of inhibition at 50 µg/mL on Acinetobacter baumannii does COC1=C(c2ccc(Br)cc2)C(=O)OC1C(O)c1ccc(N2CCOCC2)c(F)c1 (stereo unspecified) have?
Result block: 32.9

Query block: What value of inhibition at 50 µg/mL on Acinetobacter baumannii does COC1=C(c2ccccc2)C(=O)OC1C(O)c1ccc(N2CCOCC2)c(F)c1 (stereo unspecified) have?
Result block: 29.2

Please look at the following compound next.
Query block: What value of inhibition at 50 µg/mL on Acinetobacter baumannii does COC1=C(c2ccccc2)C(=O)OC1C(O)c1ccccc1 (stereo unspecified) have?
Result block: 25.9

* * *

# Tested on: Stenotrophomonas maltophilia
# measurement.description: Antibacterial activity against Stenotrophomonas maltophilia assessed as growth inhibition measured at 50 ug/ml after 24 hrs by broth microdilution method
# Assay type: functional
Could you label it TRUE if measured inhibition at 50 µg/mL is 20% or higher, and FALSE otherwise?

Query block: Test whether the compound COC1=C(c2ccc(F)cc2)C(=O)OC1C(O)c1ccc(N2CCOCC2)c(F)c1 (stereo not drawn) records inhibition at 50 µg/mL of 20% or higher.
Result block: TRUE

Query block: Test whether the compound COC1=C(c2ccccc2)C(=O)OC1C(O)c1ccc(N2CCOCC2)c(F)c1 (stereo not drawn) records inhibition at 50 µg/mL of 20% or higher.
Result block: FALSE

Query block: Test whether the compound O=C1O/C(=C\c2ccc(N3CCOCC3)c(F)c2)C(O)=C1c1ccc(F)cc1 records inhibition at 50 µg/mL of 20% or higher.
Result block: TRUE

Query block: Test whether the compound COC1=C(c2cccc(F)c2)C(=O)OC1C(O)c1ccc(N2CCOCC2)c(F)c1 (stereo not drawn) records inhibition at 50 µg/mL of 20% or higher.
Result block: TRUE

Query block: Test whether the compound COC1=C(c2ccc(C)cc2)C(=O)OC1C(O)c1ccc(N2CCOCC2)c(F)c1 (stereo not drawn) records inhibition at 50 µg/mL of 20% or higher.
Result block: FALSE

***
Query block: Test whether the compound COC1=C(c2ccc(F)cc2)C(=O)O/C1=C\c1ccc(N2CCOCC2)c(F)c1 records inhibition at 50 µg/mL of 20% or higher.
Result block: TRUE

Query block: Test whether the compound COC1=C(c2ccccc2)C(=O)OC1C(O)c1ccccc1 (stereo not drawn) records inhibition at 50 µg/mL of 20% or higher.
Result block: FALSE

* * *

# Tested on: Pseudomonas aeruginosa
# measurement.description: Antibacterial activity against Pseudomonas aeruginosa assessed as growth inhibition measured at 50 ug/ml after 24 hrs by broth microdilution method
# Assay type: functional
Could you label it Y if measured inhibition at 50 µg/mL is 40% or higher, and N otherwise?

Some solved cases for reference:
Query block: Test whether the molecule COC1=C(c2ccc(F)cc2)C(=O)O/C1=C\c1ccc(N2CCOCC2)c(F)c1 records inhibition at 50 µg/mL of 40% or higher.
Result block: N

Query block: Test whether the molecule COC1=C(c2cccc(F)c2)C(=O)OC1C(O)c1ccc(N2CCOCC2)c(F)c1 (configuration not stated) records inhibition at 50 µg/mL of 40% or higher.
Result block: N

Query block: Test whether the molecule O=C1O/C(=C\c2ccc(N3CCOCC3)c(F)c2)C(O)=C1c1ccc(F)cc1 records inhibition at 50 µg/mL of 40% or higher.
Result block: N

Query block: Test whether the molecule COC1=C(c2ccc(Cl)cc2)C(=O)O/C1=C\c1ccc(N2CCOCC2)c(F)c1 records inhibition at 50 µg/mL of 40% or higher.
Result block: Y

Query block: Test whether the molecule COC1=C(c2ccccc2)C(=O)O/C1=C\c1ccc(N2CCOCC2)c(F)c1 records inhibition at 50 µg/mL of 40% or higher.
Result block: N

***
Query block: Test whether the molecule COC1=C(c2ccc(Cl)cc2)C(=O)OC1C(O)c1ccc(N2CCOCC2)c(F)c1 (configuration not stated) records inhibition at 50 µg/mL of 40% or higher.
Result block: N

Query block: Test whether the molecule COC1=C(c2ccc(F)cc2)C(=O)OC1C(O)c1ccc(N2CCOCC2)c(F)c1 (configuration not stated) records inhibition at 50 µg/mL of 40% or higher.
Result block: N
